Attribution: patent US12570612B2

Measured Minimal lethal dose by item
test system: Sprague-Dawley rats; assay: animal or person; conditions: rats

"CC#CCOC(=O)c1c(F)cnn1[C@H](C)c1ccccc1" yielded Minimal lethal dose of >11 mg/kg

Reported Minimal lethal dose of "C=CC1(OC(=O)c2c(F)cnn2[C@H](C)c2ccccc2)COC1" : >13 mg/kg

GET /value?item= "CC#CC1(OC(=O)c2ccnn2[C@H](C)c2ccccc2)COC1" &field=Minimal lethal dose returns >12 mg/kg
